Target: Protein deacetylase HDAC6 (Homo sapiens)
Settings: at 10 µM
About 150 (2.7%) of roughly 5,600 compounds showed an effect of 50% or more. Many of the other results were omitted from the sample, so strong results are more common in it than they were.
readout label: inhibition (%)
Report the figure in % without appending any unit label.

Completed entries (count: 2):
- compound: "N[C@H](Cc1c[nH]cn1)C(=O)O"
  inhibition / %: 5.27
- compound: "COc1cc(C(=O)N(CCC2CCCN2C)C/C(C)=C/c2ccccc2F)cc(OC)c1OC (configuration not stated)"
  inhibition / %: -2.86

For the compound CN1CCC(NC(=O)c2cc(-c3c(O)cc(O)cc3Oc3ccc([N+](=O)[O-])cc3)on2)CC1 , what inhibition is on record?
-7.8

Tell me the measured inhibition of Nc1nc(N)c2nc(-c3cccc(O)c3)cnc2n1 , please.
66.2

* * *

Target: Protein deacetylase HDAC6 (Homo sapiens) (UniProt Q9UBN7)
Sequence (whole entry): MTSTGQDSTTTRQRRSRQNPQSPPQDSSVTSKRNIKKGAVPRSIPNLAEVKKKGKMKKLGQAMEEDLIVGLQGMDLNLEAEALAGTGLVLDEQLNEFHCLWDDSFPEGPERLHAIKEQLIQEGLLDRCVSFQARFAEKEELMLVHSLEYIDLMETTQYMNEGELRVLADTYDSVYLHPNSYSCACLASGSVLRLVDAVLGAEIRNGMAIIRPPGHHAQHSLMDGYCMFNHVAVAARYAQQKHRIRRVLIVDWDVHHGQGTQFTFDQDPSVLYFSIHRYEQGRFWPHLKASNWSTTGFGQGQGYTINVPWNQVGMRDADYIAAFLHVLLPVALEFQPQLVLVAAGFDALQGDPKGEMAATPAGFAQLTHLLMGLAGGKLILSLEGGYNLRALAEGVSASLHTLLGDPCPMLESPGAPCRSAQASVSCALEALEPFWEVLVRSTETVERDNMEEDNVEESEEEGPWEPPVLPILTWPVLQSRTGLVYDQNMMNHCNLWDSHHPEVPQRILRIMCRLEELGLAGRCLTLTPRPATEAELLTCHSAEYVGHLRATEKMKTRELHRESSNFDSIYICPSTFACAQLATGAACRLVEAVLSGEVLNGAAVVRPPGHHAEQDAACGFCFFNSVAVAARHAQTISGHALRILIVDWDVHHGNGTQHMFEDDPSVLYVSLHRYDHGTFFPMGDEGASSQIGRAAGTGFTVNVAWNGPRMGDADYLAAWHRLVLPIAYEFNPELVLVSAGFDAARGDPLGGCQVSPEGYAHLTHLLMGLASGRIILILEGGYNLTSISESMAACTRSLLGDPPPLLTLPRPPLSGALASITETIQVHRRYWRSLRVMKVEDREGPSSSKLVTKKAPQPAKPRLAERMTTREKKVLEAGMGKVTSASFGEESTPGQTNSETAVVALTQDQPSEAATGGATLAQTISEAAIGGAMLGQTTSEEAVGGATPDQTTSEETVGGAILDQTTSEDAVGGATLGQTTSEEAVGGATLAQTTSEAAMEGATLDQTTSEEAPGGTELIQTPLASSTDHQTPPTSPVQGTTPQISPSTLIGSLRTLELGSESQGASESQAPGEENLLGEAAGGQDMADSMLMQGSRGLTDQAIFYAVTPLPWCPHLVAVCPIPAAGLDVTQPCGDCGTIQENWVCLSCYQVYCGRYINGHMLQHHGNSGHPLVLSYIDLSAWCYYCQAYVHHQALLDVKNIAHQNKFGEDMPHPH
Settings: at 10 µM
Out of some 5,600 compounds screened, about 150 (2.7%) showed an effect of 50% or more. The sample holds strong results, similar compounds and a random draw of the others, so the mix is not that of the screen.
readout label: inhibition (%)
Only the number, expressed in %, is required.

Recorded inhibition, per entry:
- compound: "CO[C@H]1CC[C@@H](C(=O)c2ccc3nc4c(cc3c2)CCCO4)CC1"
  inhibition, %: 1.73
- compound: "CC(C(=O)O)c1ccc2c(c1)CC(=O)c1ccccc1S2 (stereo not given)"
  inhibition, %: -3.15
- compound: "Cc1ccnc(NS(=O)(=O)c2ccc(N)cc2)n1"
  inhibition, %: -3.6
- compound: "CC(C(=O)O)c1cccc(C(=O)c2ccccc2)c1 (stereo not given)"
  inhibition, %: 4.07
- compound: "C=C1C(=O)[C@@]23C(CC[C@@H]1[C@H]2O)[C@@]12CO[C@]3(O)[C@@H](O)[C@@H]1C(C)(C)CC[C@@H]2O (stereo not given in full)"
  inhibition, %: -6.66

Checklist item: inhibition tested on Protein deacetylase HDAC6 (Homo sapiens) (UniProt Q9UBN7), entry CCCOCCn1c(=O)c(N2CCN(CCO)CC2)nc2cnc(-c3ccc(OC)nc3)cc21 , value?
2

inhibition of CN(CCc1ccc(Cl)c(Cl)c1)CCN1CCCC1 on Protein deacetylase HDAC6 (Homo sapiens) (UniProt Q9UBN7)?
3.41

Please provide the recorded inhibition for CS(=O)(=O)c1ccc(Oc2cc(F)cc(C#N)c2)c2c1[C@H](O)C(F)(F)C2 , tested on Protein deacetylase HDAC6 (Homo sapiens) (UniProt Q9UBN7).
-4.01

Reported inhibition for Protein deacetylase HDAC6 (Homo sapiens) (UniProt Q9UBN7), given CC(C(=O)O)c1ccc(N2Cc3ccccc3C2=O)cc1 (stereo not given) ?
82.1

What value of inhibition on Protein deacetylase HDAC6 (Homo sapiens) (UniProt Q9UBN7) does CCOC(=O)N1c2ccc(C(F)(F)F)cc2[C@@H](N(Cc2cc(C(F)(F)F)cc(C(F)(F)F)c2)C(=O)OC)C[C@H]1CC have?
-1.4

* * *

Measured inhibition, listed per entry for reference.
Target: Protein deacetylase HDAC6 (Homo sapiens) (UniProt Q9UBN7)
Conditions: at 10 µM
In all, about 5,600 compounds went through this assay and about 150 (2.7%) showed an effect of 50% or more. The sample as a whole holds a higher share of strong results than the screen did.
Numbers only here, please. The scale is %.

Sample answers from the record:
- compound: "CCCCc1nc2cc(/C=C/C(=O)NO)ccc2n1CCN(CC)CC"
  inhibition / %: 97.3
- compound: "COC(=O)CC1CC(c2ccc(O)cc2)=NO1 (configuration not stated)"
  inhibition / %: 68.8
- compound: "Cc1nc2ccccc2c(-c2ccc3c4c(ccnc24)CCO3)c1[C@H](OC(C)(C)C)C(=O)O"
  inhibition / %: -1.87
- compound: "CC(C)=CCC[C@](C)(O)[C@H]1CC[C@]2(C)[C@@H]1[C@H](O)C[C@@H]1[C@@]3(C)CC[C@H](O)C(C)(C)[C@@H]3[C@@H](O)C[C@]12C"
  inhibition / %: -3.01
- compound: "COc1ccc2nc(NC(=O)Nc3ccccc3)sc2c1"
  inhibition / %: 58.2
- compound: "OC(CN1CCNCC1)Cn1c2ccc(Br)cc2c2cc(Br)ccc21 (configuration not stated)"
  inhibition / %: -4.75
- compound: "c1ccc(N2CCN(Cc3nc4ccccc4[nH]3)CC2)nc1"
  inhibition / %: 1.74
- compound: "C[C@@]1(F)[C@H](O)[C@@H](CO)O[C@H]1n1ccc(N)nc1=O"
  inhibition / %: -2.29
- compound: "COc1cc2nc(C3CC3)nc(N3CCN(c4ccccc4OC)CC3)c2cc1OC"
  inhibition / %: 0
- compound: "CCN1C(=O)CNc2ncc(-c3ccc(-c4nc[nH]n4)nc3C)nc21"
  inhibition / %: 0.29

# get_value(readout= inhibition, system= Protein deacetylase HDAC6 (Homo sapiens) (UniProt Q9UBN7)) for COC(=O)c1ccc(O)cc1
11.4

What reported inhibition corresponds to O=C(O)[C@H](Cc1c[nH]c2ccccc12)N1C(=O)c2ccccc2C1=O on Protein deacetylase HDAC6 (Homo sapiens) (UniProt Q9UBN7)?
3.67

Find the measured inhibition: item COc1ccc(Cl)c(Nc2nc3ccccc3nc2NS(=O)(=O)c2cccc(NC(=O)C(C)(C)N)c2)c1 , target or system Protein deacetylase HDAC6 (Homo sapiens) (UniProt Q9UBN7).
-9.43

Query the reported inhibition for Protein deacetylase HDAC6 (Homo sapiens) (UniProt Q9UBN7); item: COCCOc1ccc(N2CCN(CCn3ncc4c3nc(N)n3nc(-c5ccco5)nc43)CC2)cc1
4.38

Value wanted: inhibition (Protein deacetylase HDAC6 (Homo sapiens) (UniProt Q9UBN7)) of entry Cc1cc(OCC(=O)O)cc(C)c1Cc1ccc(O)c(C(C)C)c1
-5.84

For the record NC1(C(=O)N[C@@H](CCO)c2ccc(Cl)cc2)CCN(c2nc[nH]c3nccc2-3)CC1 , what value of inhibition is listed for Protein deacetylase HDAC6 (Homo sapiens) (UniProt Q9UBN7)?
5

Hi! What's the reported inhibition for O[C@H]1CC[C@H](Nc2nc(-c3ccccc3)nc3[nH]ccc23)CC1 on Protein deacetylase HDAC6 (Homo sapiens) (UniProt Q9UBN7)?
2.15

* * *

Target: Protein deacetylase HDAC6 (Homo sapiens) (UniProt Q9UBN7)
Conditions: at 10 µM
Screen size: about 5,600 compounds; about 150 (2.7%) showed an effect of 50% or more. The list comes from a sample in which strong results are over-represented; it also holds close analogues and randomly drawn compounds.
Decide by inhibition: equal to or exceeding 10% means met, less means not met.

Is reported inhibition greater than or equal to 10% here: O=C(Nc1ccc2[nH]ccc2c1)c1ccccc1
met
